Values from paper PMC8310135

Known activity at 5 µM of a selection of compounds
test system: rLUJV/ZsG; experiment: microbe, parasite or virus in culture; assay type: cell-based, Lujo virus; conditions: Mammarenavirus lujoense, Huh-7; 5000 nM; read-out: Relative ZsG (%) Mean
The reply should contain only the number, in %.

Data request: Could you share which activity at 5 µM value was measured for O=C(c1ccc(OCCN2CCCCC2)cc1)c1c(-c2ccc(O)cc2)sc2cc(O)ccc12 [Raloxifene (Evista), Raloxifene] ?
Data returned: 3

Data request: Could you share which activity at 5 µM value was measured for [N-]=[N+]=Nc1cn([C@@H]2O[C@H](CO)[C@@H](O)[C@H]2O)c(=O)[nH]c1=O ?
Data returned: 113

Data request: Could you share which activity at 5 µM value was measured for COc1c(-c2ccc3cc(NS(C)(=O)=O)ccc3c2)cc(-n2ccc(=O)[nH]c2=O)cc1C(C)(C)C ?
Data returned: 129

Data request: Could you share which activity at 5 µM value was measured for O=C1C=CN([C@@H]2O[C@H](CO)[C@@H](O)[C@H]2O)C(=O)C1 ?
Data returned: 111

Continuing:
Data request: Could you share which activity at 5 µM value was measured for CCCCc1oc2ccccc2c1C(=O)c1cc(I)c(OCCN(CC)CC)c(I)c1 ?
Data returned: 3

Data request: Could you share which activity at 5 µM value was measured for C[C@@]1(O)[C@H](O)[C@@H](CO)O[C@H]1n1ccc(=O)[nH]c1=O ?
Data returned: 126

Data request: Could you share which activity at 5 µM value was measured for [N-]=[N+]=Nc1nc2c(N)ncnc2n1[C@@H]1O[C@H](CO)[C@@H](O)[C@H]1O ?
Data returned: 6
